- System: Yap1 mRNA
- assay.info: Antisense inhibition of human Yap1 in SNU-449 cells by modified oligonucleotides, single dose (Example 5, RTS36584)
- Assay type: cell-based
- experimental.setup: Table 48; Yap1 mRNA level relative to untreated control; modified oligonucleotides targeting SEQ ID NO.: 1 and 2
Strand notation (5' to 3'): a small letter for the sugar, then the base; units joined by * are phosphorothioate-linked, units joined directly phosphodiester-linked; [ ] holds rarer units or linkages, { } end groups; capitals alone tell only the bases. e = 2'-O-(2-methoxyethyl) (MOE); k = constrained ethyl (cEt); [5mC] = 5-methylcytosine; d = 2'-deoxy (DNA)
Attribute: YAP1 (% UT)
Answer in % UT, number only, no unit symbol.

substance	result.unit	YAP1 (% UT)
1198345 (kA*kA*kT*dA*dT*dT*dG*d[5mC]*dA*dA*dT*d[5mC]*kT*eG*kT*e[5mC]; antisense) [Compound 1198345]	% UT	75
1198299 (ATATTAGAGTATGTGG; chemistry not fully specified) [Compound 1198299]	% UT	27
1198308 (kT*kT*kT*dT*dA*d[5mC]*dA*dT*dT*dA*dG*dG*kA*eA*k[5mC]*eA; antisense) [Compound 1198308]	% UT	68

In the following, a different substance is considered.
Item 958590 (kA*kG*kG*dT*dA*dT*dA*dA*d[5mC]*dT*dG*dG*dG*k[5mC]*kA*kA) [Compound 958590] has what recorded YAP1 (% UT)?
18

----------
YAP1 (% UTC) listing for selected substances.
- Tested on: Yap1 mRNA
- assay.info: Antisense inhibition of human Yap1 in A-431 cells by cEt gapmers, single dose (Example 2, RTS4814)
- Assay type: cell-based
- experimental.setup: Table 5; A-431 cells, 5,000 cells per well, free uptake, 2,000 nM modified oligonucleotide, approx. 48 hours; RTS4814; normalized to RIBOGREEN; Yap1 mRNA relative to untreated control cells
Strand notation (5' to 3'): a small letter for the sugar, then the base; units joined by * are phosphorothioate-linked, units joined directly phosphodiester-linked; [ ] holds rarer units or linkages, { } end groups; capitals alone tell only the bases. k = constrained ethyl (cEt); [5mC] = 5-methylcytosine; d = 2'-deoxy (DNA)
Write the numeric value and append its unit.

For orientation, consider the following solved cases.
substance	endpoint.name	result
716425 (kG*k[5mC]*kA*dA*dT*dA*d[5mC]*dA*dT*dT*dA*dA*d[5mC]*kA*kG*k[5mC]; antisense) [Compound 716425]	YAP1 (% UTC)	71 % UTC
716452 (kT*kT*kA*d[5mC]*d[5mC]*dA*dA*dA*dA*d[5mC]*dA*dA*d[5mC]*kT*kA*k[5mC]; antisense) [Compound 716452]	YAP1 (% UTC)	98 % UTC
716389 (kA*kG*k[5mC]*d[5mC]*dT*dT*dG*dG*dG*dT*d[5mC]*dT*dA*kG*k[5mC]*k[5mC]; antisense) [Compound 716389]	YAP1 (% UTC)	93 % UTC
716359 (k[5mC]*k[5mC]*k[5mC]*d[5mC]*dT*dG*dA*d[5mC]*d[5mC]*d[5mC]*dA*dG*dG*k[5mC]*kG*kA; antisense) [Compound 716359]	YAP1 (% UTC)	101 % UTC
716554 (kA*kT*kG*d[5mC]*dT*dT*dG*d[5mC]*dG*dA*dG*dG*dA*kT*kA*kA; antisense) [Compound 716554]	YAP1 (% UTC)	30 % UTC
716536 (antisense kA*kA*kG*dT*dA*dG*dA*dT*d[5mC]*dT*dA*dA*dG*kA*kA*kG) [Compound 716536]	YAP1 (% UTC)	94 % UTC

State the recorded YAP1 (% UTC) for this entry: 716398 (kT*kA*kT*dT*d[5mC]*d[5mC]*dG*d[5mC]*dA*dT*dT*dG*d[5mC]*k[5mC]*kT*kG; antisense) [Compound 716398]
70 % UTC

GET /values?readout=YAP1 (% UTC)&item= 716557 (kA*kT*kT*dG*dG*dT*dA*d[5mC]*dT*dA*dT*dA*dT*kA*kT*kA; antisense) [Compound 716557]
80 % UTC

Please report the recorded YAP1 (% UTC) for 716491 (k[5mC]*kT*kG*dG*dT*dG*d[5mC]*d[5mC]*dA*d[5mC]*dT*dT*dT*kA*kA*kT; antisense) [Compound 716491] .
54 % UTC

Value lookup for YAP1 (% UTC); key = 716545 (kG*k[5mC]*kA*dT*dG*dT*dA*dT*dT*dT*dA*dA*dT*kA*kT*kG; antisense) [Compound 716545]
91 % UTC

Could you tell me which YAP1 (% UTC) is on file for 716392 (k[5mC]*kT*kG*d[5mC]*d[5mC]*dA*d[5mC]*d[5mC]*d[5mC]*dA*dT*dG*dA*k[5mC]*kG*k[5mC]; antisense) [Compound 716392] ?
95 % UTC

What value of measured YAP1 (% UTC) is listed for 716548 (kG*kA*kG*dT*dT*dT*d[5mC]*dA*dA*d[5mC]*dA*d[5mC]*dT*kG*kA*kT; antisense) [Compound 716548] ?
31 % UTC
